From: PubChem BioAssay AID485346

// values below are reported inhibition
Target: Protein Mdm4 (Homo sapiens) + E3 ubiquitin-protein ligase Mdm2 (Homo sapiens) (UniProt O15151+Q00987)
Sequence (O15151 whole entry, looked up): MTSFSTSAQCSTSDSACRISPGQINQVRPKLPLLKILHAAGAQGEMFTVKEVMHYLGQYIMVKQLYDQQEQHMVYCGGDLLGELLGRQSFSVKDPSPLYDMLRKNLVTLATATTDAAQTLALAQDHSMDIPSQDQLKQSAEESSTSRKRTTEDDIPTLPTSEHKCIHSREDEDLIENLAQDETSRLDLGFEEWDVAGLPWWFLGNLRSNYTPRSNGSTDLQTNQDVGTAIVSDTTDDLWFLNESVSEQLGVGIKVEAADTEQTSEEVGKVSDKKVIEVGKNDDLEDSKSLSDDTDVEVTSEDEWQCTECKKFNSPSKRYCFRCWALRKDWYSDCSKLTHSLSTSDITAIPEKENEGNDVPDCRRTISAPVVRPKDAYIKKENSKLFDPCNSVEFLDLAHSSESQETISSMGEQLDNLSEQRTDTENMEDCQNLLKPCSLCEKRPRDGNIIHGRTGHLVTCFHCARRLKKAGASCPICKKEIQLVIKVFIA
Sequence (Q00987 whole entry, looked up): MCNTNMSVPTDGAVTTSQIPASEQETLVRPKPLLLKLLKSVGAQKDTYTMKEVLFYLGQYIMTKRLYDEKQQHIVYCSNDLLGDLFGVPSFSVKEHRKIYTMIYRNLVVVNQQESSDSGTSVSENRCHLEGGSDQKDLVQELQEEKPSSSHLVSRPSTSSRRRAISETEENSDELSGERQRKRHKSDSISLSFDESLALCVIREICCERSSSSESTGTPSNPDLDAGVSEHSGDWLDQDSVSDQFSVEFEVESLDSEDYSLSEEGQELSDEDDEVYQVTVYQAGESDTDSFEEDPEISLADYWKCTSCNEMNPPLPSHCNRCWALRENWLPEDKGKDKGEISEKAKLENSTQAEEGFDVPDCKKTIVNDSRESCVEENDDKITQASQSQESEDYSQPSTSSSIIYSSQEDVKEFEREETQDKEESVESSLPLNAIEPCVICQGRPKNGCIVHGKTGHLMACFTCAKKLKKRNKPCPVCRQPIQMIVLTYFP
Experiment: inhibitors of human Mdm2-MdmX association, primary screen, cell-based, luminescence, split luciferase, SaOS-2, uHTS (AID 485346)
Conditions: SaOS-2 split-luciferase Mdm2/MdmX complementation, at 8 µM, stronger effect = higher value
Hit rate of the full screen: of about 330,000 compounds, about 10,000 (3%) were called active. Shown is part of a subset that was picked to be rich in actives.
Reply numerically in %, unit not repeated.

# annotated cases, reported inhibition shown
[
  {
    "compound": "Cc1ccc2c(c1)N(CC(=O)N(Cc1ccccn1)Cc1ccco1)C(=O)C(C(C)C)O2 (stereo not given)",
    "outcome-measure": "inhibition",
    "assay-result": 2.25
  },
  {
    "compound": "CCCCn1c(N)c(N(CCOC)C(=O)c2cccc(OCc3ccccc3)c2)c(=O)[nH]c1=O",
    "outcome-measure": "inhibition",
    "assay-result": -6.7
  },
  {
    "compound": "CCOC(=O)Cn1c(-c2cccnc2Cl)nc2ccccc21",
    "outcome-measure": "inhibition",
    "assay-result": -0.413
  },
  {
    "compound": "CCCCCCCCCCOC(=O)Cn1c(COc2ccc(C)cc2)[n+](C)c2ccccc21",
    "outcome-measure": "inhibition",
    "assay-result": 91.9
  }
]

Now take the following compound into account.
Enquiry: Reported inhibition for COc1cccc(OCc2nnc3n2N=C(c2ccccc2)C(CC(=O)O)S3)c1 (stereo not given) : what is it?
Return: -4

====

Molecular target: Protein Mdm4 (Homo sapiens) + E3 ubiquitin-protein ligase Mdm2 (Homo sapiens) (UniProt O15151+Q00987)
Test: inhibitors of human Mdm2-MdmX association, primary screen, cell-based, luminescence, split luciferase, SaOS-2, uHTS (AID 485346)
Details: SaOS-2 split-luciferase Mdm2/MdmX complementation, at 8 µM, stronger effect = higher value
The campaign covered roughly 330,000 compounds. About 10,000 (3%) were called active. The sample holds actives, similar compounds and a random draw of the others, so the mix is not that of the screen.
// values below are reported inhibition
Reply numerically in %, unit not repeated.

# annotated cases, reported inhibition shown
[
  {
    "smiles-code": "COc1ccc(CNc2nnnn2C)cc1",
    "inhibition (%)": -2.21
  },
  {
    "smiles-code": "NS(=O)(=O)c1ccc(CCNC(=O)CN2C(=O)c3ccccc3S2(=O)=O)cc1",
    "inhibition (%)": 27.9
  },
  {
    "smiles-code": "COCCN(C(=O)C(C)C)c1nnc(-c2ccc(C(C)(C)C)cc2)s1",
    "inhibition (%)": -22.5
  },
  {
    "smiles-code": "CCCCCCCCCCOC(=O)Cn1c(COc2cccc(OC)c2)[n+](C)c2ccccc21",
    "inhibition (%)": 61.7
  },
  {
    "smiles-code": "C/C(=N/OC(=O)c1ccc(Br)cc1)c1ccc(C)cc1",
    "inhibition (%)": 5.85
  }
]

Now take the following compound into account.
Enquiry: Reported inhibition for `Fc1ccc(CNc2nc3ccccc3n3nnnc23)cc1` : what is it?
Return: 54

====

Target: Protein Mdm4 (Homo sapiens) + E3 ubiquitin-protein ligase Mdm2 (Homo sapiens) (UniProt O15151+Q00987)
Test: inhibitors of human Mdm2-MdmX association, primary screen, cell-based, luminescence, split luciferase, SaOS-2, uHTS (AID 485346)
Settings: SaOS-2 split-luciferase Mdm2/MdmX complementation, at 8 µM
The campaign covered roughly 330,000 compounds. About 10,000 (3%) were called active.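 Rule for the calls: active = inhibition of at least 50% at 8 µM in the primary screen; inactive = the rest.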 The entries come from a sample that favours actives as a whole.
The reply should name one outcome from true (1) (active), false (0) (inactive)

Check out these entries, answers already filled in.
[
  {
    "smiles-code": "CSc1nsc(NC(=O)Nc2ccccc2)n1",
    "label": "false (0)"
  },
  {
    "smiles-code": "C=CCSc1nnc(NC(=O)c2ccc(NC(C)=O)cc2)s1",
    "label": "false (0)"
  },
  {
    "smiles-code": "O=c1[nH]cccc1-c1nc2ccccc2n1Cc1ccc(Cl)cc1",
    "label": "false (0)"
  },
  {
    "smiles-code": "CCSc1nsc(NC(=O)Nc2cccc(C(C)=O)c2)n1",
    "label": "true (1)"
  }
]

Enquiry: Could you check what this test reported for `C=CCSc1nsc(NC(=O)Nc2cccc(C(C)=O)c2)n1` ?
Return: true (1)

Enquiry: Could you check what this test reported for `CCSc1nsc(NC(=O)Nc2ccccc2OC)n1` ?
Return: false (0)

Enquiry: Could you check what this test reported for `C=C(C)C(=O)Nc1cccc(C(C)=O)c1` ?
Return: false (0)

====

Molecular target: Protein Mdm4 (Homo sapiens) + E3 ubiquitin-protein ligase Mdm2 (Homo sapiens) (UniProt O15151+Q00987)
Assay: inhibitors of human Mdm2-MdmX association, primary screen, cell-based, luminescence, split luciferase, SaOS-2, uHTS (AID 485346)
Conditions: SaOS-2 split-luciferase Mdm2/MdmX complementation, at 8 µM
About 10,000 (3%) of roughly 330,000 compounds were called active.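 How the source made its calls: active means inhibition of at least 50% at 8 µM in the primary screen; inactive means the rest.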 This excerpt belongs to a sample that is enriched for actives.
The reply should name one outcome from active, inactive

Check out these entries, answers already filled in.
[
  {
    "compound": "CCC(CO)Oc1cc(NCc2ccccc2)c2ncn(C3CCCC3)c2c1 (configuration not stated)",
    "label": "inactive"
  },
  {
    "compound": "CCOc1ccc(NC(=O)c2nc(SCC)ncc2Cl)cc1",
    "label": "inactive"
  },
  {
    "compound": "CC(C)n1cnc2c(NCc3ccccc3)cc(OCC3CCN(C)CC3)cc21",
    "label": "inactive"
  }
]

Enquiry: Could you check what this test reported for `O=c1[nH]c(/C=C/c2cccc(Br)c2)nc2ccccc12` ?
Return: inactive

Enquiry: Could you check what this test reported for `COc1cc(NC(=O)c2ccc(CNc3c(N4CCCC4)c(=O)c3=O)cc2)cc(OC)c1OC` ?
Return: inactive

====

Molecular target: Protein Mdm4 (Homo sapiens) + E3 ubiquitin-protein ligase Mdm2 (Homo sapiens) (UniProt O15151+Q00987)
Test: inhibitors of human Mdm2-MdmX association, primary screen, cell-based, luminescence, split luciferase, SaOS-2, uHTS (AID 485346)
Settings: SaOS-2 split-luciferase Mdm2/MdmX complementation, at 8 µM, stronger effect = higher value
Among all 330,000 compounds or so, about 10,000 (3%) were called active. This is one part of a sample in which actives are shown more often than they occur.
// values below are reported inhibition
Reply numerically in %, unit not repeated.

# annotated cases, reported inhibition shown
[
  {
    "compound": "CCCCN1C(=O)/C(=C/C=C2/C=Cc3ccccc3N2CC)SC1=S",
    "units-label": "%",
    "inhibition": 64.7
  },
  {
    "compound": "Cc1cc(CNC(=O)c2cccc([N+](=O)[O-])c2)c2ccccc2n1",
    "units-label": "%",
    "inhibition": 57.9
  },
  {
    "compound": "COc1ccc(C(=O)NC(C)Cn2nc(C)cc2C)cc1OC1CCN(C(C)=O)CC1 (stereo not given)",
    "units-label": "%",
    "inhibition": 2.18
  },
  {
    "compound": "O=C(NCCc1ccc(F)cc1)c1ccc(S(=O)(=O)N2CCCCC2)cc1",
    "units-label": "%",
    "inhibition": 0.124
  },
  {
    "compound": "O=[N+]([O-])c1ccc(Oc2ccc(F)cc2Br)c2ccncc12",
    "units-label": "%",
    "inhibition": 78
  }
]

Now take the following compound into account.
Enquiry: Reported inhibition for `Cc1nn2c(NCCN(C)C)c3c(nc2c1-c1ccccc1)CCC3` : what is it?
Return: 1.13

====

Target: Protein Mdm4 (Homo sapiens) + E3 ubiquitin-protein ligase Mdm2 (Homo sapiens) (UniProt O15151+Q00987)
Test: inhibitors of human Mdm2-MdmX association, primary screen, cell-based, luminescence, split luciferase, SaOS-2, uHTS (AID 485346)
Conditions: SaOS-2 split-luciferase Mdm2/MdmX complementation, at 8 µM, stronger effect = higher value
Out of some 330,000 compounds screened, about 10,000 (3%) were called active. Shown is part of a subset that was picked to be rich in actives.
// values below are reported inhibition
Reply numerically in %, unit not repeated.

# annotated cases, reported inhibition shown
[
  {
    "compound": "O=C(/C=C/c1ccc(Cl)c([N+](=O)[O-])c1)c1cccnc1",
    "assay-result": 84.3
  },
  {
    "compound": "N#Cc1ccc(Oc2cc(C(F)(F)F)nc(-c3ccccn3)n2)cc1",
    "assay-result": 11.2
  },
  {
    "compound": "CCOC(=O)c1c(NC(=O)c2ccc(S(=O)(=O)N(C)CC3CCCO3)cc2)sc2c1CC(C)(C)NC2(C)C (stereo not given)",
    "assay-result": 79.5
  },
  {
    "compound": "CN(CC1CCCO1)S(=O)(=O)c1ccc(C(=O)Nc2ccc(F)cc2)cc1 (stereo not given)",
    "assay-result": 14.6
  },
  {
    "compound": "Cc1cccc(NC(=O)c2ccc(S(=O)(=O)N(C)CC3CCCO3)cc2)c1C (stereo not given)",
    "assay-result": 17.9
  },
  {
    "compound": "CSc1nc(-c2ccccc2)nc(C(Cl)Cl)n1",
    "assay-result": 101
  },
  {
    "compound": "COc1ccccc1NC(=O)C1CCN(C(=O)c2ccc(C(C)(C)C)cc2)CC1",
    "assay-result": 28.8
  },
  {
    "compound": "CN(C)c1ccc(/C=C/C(=O)c2ccc(C(C)(C)C)cc2)cc1[N+](=O)[O-]",
    "assay-result": 30.9
  },
  {
    "compound": "CCn1cc(C(=O)N[C@@H](C)C(=O)NCCO)c(=O)c2cc3c(cc21)OCO3",
    "assay-result": -4.24
  }
]

Enquiry: Reported inhibition for `CSc1ncc(Sc2ccccc2)c(C(=O)O)n1` : what is it?
Return: 8.72
